Reference for the values: patent US20220259593A1

# Test system: K562 CRISPRi cells
# Protocol description: Constant region variant library pooled growth screen, K562
# Format: cell-based, human
# Stated conditions: sgRNA constant region variants; activity relative to the unmodified constant region cr995
Measured endpoint: Mean relative activity
// no unit string in output, number only

Please review the following examples before continuing.
* cr854 (nucleic acid, listed as DNA, chemistry not fully specified) guide: GTTTAAGAGCTAAGCTGGAAACAGCATAGCAAGTTTAAATAAGGCTAGTCCGTTATCAACTTGAAAAAGTGGCAGGGAGTCCCTGCT | 0.2099
* cr992 (nucleic acid, listed as DNA, chemistry not fully specified) guide: GTTTAAGAGCTAAGCTGGAAACAGCATTGCAAGTTTAAATAAGGCTAGTCCATTATCAACTTGAAAAAGTGGCACCGAGTCGGTGCT | 0.2785
* cr002 (nucleic acid, listed as DNA, chemistry not fully specified) guide: CTTTAAGAGCTAAGCTGGAAACAGCATAGCAAGTTTAAATAAGGCTAGTCCGTTATCAACTTGAAAAAGTGGCACCGAGTCGGTGCT | 0.3195
* cr720 (nucleic acid, listed as DNA, chemistry not fully specified) guide: GTTTAAGAGCTAAGCTGGAAACAGCATAGCAAGCTTAAATAAGGTTAATCCGTTATCAACTTGAAAAAGTGGCACCGAGTCGGTGCT | 0.2481

Just so you know, measured Mean relative activity for cr792 (nucleic acid, listed as DNA, chemistry not fully specified) guide: GTTTAAGAGCTAAGCTGGAAACAGCATAGCAAGCTTAAATAAGGCTAGTCCGTTATCAACTTGAAAAAGTGCCACCGAGTCGGTGGT came out at 0.242
